Tested on: MDA-N
protocolDescription: NCI tumour cell line growth inhibition, 48 h
The source made the active and inactive calls. Cut-off read from the data, not from the text of the source: active = GI50 up to about 1.1 µM and inactive = higher.
Select the matching outcome among label 1 = active, label 0 = inactive

Each compound tested received a call. Report the one for Cc1cccc(C)c1NC(=S)N/C=C(\C#N)C(N)=O .
label 0

Same lookup for O=C1C/C(=C\c2ccccc2)C(=O)c2ccccc2N1 , please.
label 0

Same lookup for CCOP(=O)(OCC)[C@]12C[C@@H](C)C=C[C@H]1COC2=O , please.
label 0

Same lookup for Nc1nn2c(nc(N)c3c(N)n[nH]c32)c1/N=N\c1ccc(Br)cc1 , please.
label 0

Same lookup for Oc1ccc2c3c1OC1c4[nH]ncc4C[C@H]4[C@@H](C2)N(CC2CC2)CC[C@]314 (stereo partly specified) , please.
label 0

Same lookup for CCN(CC)C(=S)N/N=C/c1cc([N+](=O)[O-])ccc1O , please.
label 0

---
Each compound tested received a call. Report the one for CC(=O)OC(C)(C)/N=N/c1ccc(Br)cc1 .
label 1

Same lookup for COC(=O)c1cc(C)n2c1CS[C@@H]2c1ccccc1 , please.
label 0

---

# GI50 values compiled below
Tested on: SW-620
protocolDescription: NCI tumour cell line growth inhibition, 48 h
Calls of active or inactive are those of the source. Rule as the data show it: active = GI50 up to about 1.1 µM and inactive = higher.

// below: answered molecules
# get_value(readout='GI50', item= O=C(CCCN1CCC2(CC1)CC(=O)N(N1CCOCC1)C2=O)c1ccccc1 )
> 100 µM (inactive)

Same lookup for Fc1c(F)c(C(F)(F)F)c(F)c(F)c1N/N=C\c1c[nH]c2ccccc12 , please.
3.37 µM (inactive)

Same lookup for N/C(=N\OC(=O)NC(Cl)=C(Cl)Cl)c1cc(C(F)(F)F)cc(C(F)(F)F)c1 , please.
18.9 µM (inactive)

Same lookup for COC(=O)C(=O)C(C(=O)OC)C(=O)C(=O)Nc1cc(Cl)c(C)cc1S(=O)(=O)O (stereo not given) , please.
> 100 µM (inactive)

Consider the additional molecule presented here.
# get_value(readout='GI50', item= COc1ccc(C2c3cc4c(cc3C(O)C3CCC(=O)N23)OCO4)cc1 (stereo not given) )
> 100 µM (inactive)

---

Tested on: MDA-MB-231
protocolDescription: NCI tumour cell line growth inhibition, 48 h
Activity calls are given as the source filed them. No stated cut-off is given here; in the data, active = GI50 up to about 1.1 µM and inactive = higher.
# GI50 values compiled below

// below: answered compounds
# get_value(readout='GI50', item= C[C@H](CCC(=O)NCCS(=O)(=O)O)[C@H]1CC[C@H]2[C@@H]3[C@H](O)C[C@@H]4C[C@H](O)CC[C@]4(C)[C@H]3CC[C@]12C )
> 100 µM (inactive)

Same lookup for COc1cc2c(cc1OC)C(=O)/C(=C/c1ccc(Cl)cc1)CC2 , please.
> 10 µM (inactive)

Same lookup for COC(=O)C1CN=CN1CCc1ccccc1 (stereo unspecified) , please.
> 100 µM (inactive)

Same lookup for CN(C)c1ccc(C2ON=C(c3ccccc3)N2C23CC4CC(CC(C4)C2)C3)cc1 (stereo unspecified) , please.
> 10 µM (inactive)

Same lookup for Cc1cc2ccccc2c[n+]1CC(=O)CC([O-])(C(F)(F)F)C(F)(F)F , please.
> 100 µM (inactive)

---
# get_value(readout='GI50', item= Cc1nn(C(=O)c2ccc(Cl)cc2)c2c1C(c1cccc([N+](=O)[O-])c1)SC(=N)N2 (stereo unspecified) )
> 10 µM (inactive)

Values were extracted from ChEMBL document CHEMBL1201862.
